# system_name: HLA-A*3301 (human)
# experimental_protocol: competition with 125I probe peptide for purified HLA
test_readout: IC50 (nM)

binder	readout_unit	test_result
TVSPSYTYYR [CEA.419.V2]	nM	264
